details: Liquid; Ebulliometric method (Recirculating still)
measured endpoint: Normal boiling temperature (°C)
Numbers only; they are read as °C.

Query string: Please give the measured Normal boiling temperature for this compound: COC(C)=O [methyl ethanoate]
Result string: 56.70

Query string: Please give the measured Normal boiling temperature for this compound: CCCCCCC
Result string: 98.20

Query string: Please give the measured Normal boiling temperature for this compound: COC=O [methyl methanoate]
Result string: 31.64

Query string: Please give the measured Normal boiling temperature for this compound: CCC(=O)OC [methyl propanoate]
Result string: 78.50

Query string: Please give the measured Normal boiling temperature for this compound: CCCC(=O)OC [methyl butanoate]
Result string: 102.38

###

For each record, write down the corresponding mass density.
settings: 298.15 K; 101.33 kPa; Liquid; Vibrating tube method
Numbers after ± are expanded uncertainties.

Query string: Please give the measured mass density for this molecule: CCC(=O)OC [methyl propanoate]
Result string: 908.59 ± 0.47 kg/m3

Query string: Please give the measured mass density for this molecule: CCCCC(=O)OC [methyl pentanoate]
Result string: 884.58 ± 0.46 kg/m3

Query string: Please give the measured mass density for this molecule: CCCCCCC [heptane]
Result string: 679.3 ± 0.45 kg/m3

Query string: Please give the measured mass density for this molecule: COC(C)=O [methyl ethanoate]
Result string: 927.14 ± 0.47 kg/m3

Query string: Please give the measured mass density for this molecule: COC=O [methyl methanoate]
Result string: 966.18 ± 0.49 kg/m3

Query string: Please give the measured mass density for this molecule: CCCC(=O)OC [methyl butanoate]
Result string: 892.52 ± 0.46 kg/m3
